Entries and their % Inhibition, HEK-Blue IL-36R SEAP reporter assay values follow.
Target: T1, hu-IL-36α (human IL-36α, N-terminally truncated active form K6-F158) (human, UniProt Q9UHA7 6-158)
T1 sequence: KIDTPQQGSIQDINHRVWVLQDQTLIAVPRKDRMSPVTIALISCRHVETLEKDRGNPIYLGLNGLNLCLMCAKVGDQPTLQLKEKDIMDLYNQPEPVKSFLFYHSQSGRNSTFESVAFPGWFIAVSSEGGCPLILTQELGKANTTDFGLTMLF
Test: cell-based or functional assay
Recorded endpoint: % Inhibition, HEK-Blue IL-36R SEAP reporter assay (%)

INSERT INTO results (binder, endpoint_result) VALUES
  ('mAb1.0 Fab (yeast clone culture supernatant) (Fab, V domains shown, Human Fab secreted by the yeast clone, not purified) VH: QVQLVESGGGVVQPGRSLRLSCAASGFSFSAYAMHWVRQAPGKGLEWVAVISYDGTNEYYADSVKGRFTISRDNSKNTLYLQMNSLRAEDTAVYYCARGIRIFTSYFDSWGQGTLVTVSS VL: QSVLTQPPSVSGAPGQRVTISCTGSSSNIGAHYDVHWYQQLPGTAPKLLIYSNNNRPSGVPDRFSGSKSGTSASLAITGLQAEDEADYYCQSYDYSLRGYVFGGGTKLTVL', 70),
  ('mAb5.0 Fab (yeast clone culture supernatant) (Fab, V domains shown, Human Fab secreted by the yeast clone, not purified) VH: EVQLLESGGGLVQPGGSLRLSCAASGFTFSTYAMSWVRQAPGKGLEWVSGISGGSGYTYYADSVKGRFTISRDNSKNTLYLQMNSLRAEDTAVYYCARVVTYRDPPASFDYWGQGTLVTVSS VL: QSVLTQPPSVSGAPGQRVTISCTGSSSNIGAHYDVHWYQQLPGTAPKLLIYGNDNRPSGVPDRFSGSKSGTSASLAITGLQAEDEADYYCQSYDYSLKAYVFGGGTKLTVL', 75),
  ('mAb3.0 Fab (yeast clone culture supernatant) (Fab, V domains shown, Human Fab secreted by the yeast clone, not purified) VH: QLQLQESGPGLVKPSETLSLTCTVSGGSISSTSYYWGWIRQPPGKGLEWIGSIHYSGNTYYNPSLKSRVTISVDTSKNQFSLKLSSVTAADTAVYYCARVHYGGYIPRRFDHWGQGTLVTVSS VL: QSVLTQPPSVSGAPGQRVTISCTGSSSNIGAGYDVHWYQQLPGTAPKLLIYGNTNRPSGVPDRFSGSKSGTSASLAITGLQAEDEADYYCQSYDYSLRGYVFGGGTKLTVL', 40),
  ('mAb2.0 Fab (yeast clone culture supernatant) (Fab, V domains shown, Human Fab secreted by the yeast clone, not purified) VH: QLQLQESGPGLVKPSETLSLTCTVSGGSISTSSYYWGWIRQPPGKGLEWIGSIYYTGNTYYNPSLKSRVTISVDTSKNQFSLKLSSVTAADTAVYYCARVRYGVGVPRYFDPWGQGTLVTVSS VL: QSVLTQPPSVSGAPGQRVTISCTGSSSNIGAHYDVHWYQQLPGTAPKLLIYGNDNRPSGVPDRFSGSKSGTSASLAITGLQAEDEADYYCQSYDYSLSGYVFGGGTKLTVL', 91),
  ('mAb4.0 Fab (yeast clone culture supernatant) (Fab, V domains shown, Human Fab secreted by the yeast clone, not purified) VH: QLQLQESGPGLVKPSETLSLTCTVSGGSIGSRSYYWGWIRQPPGKGLEWIGSIHYSGTTYYNPSLKSRVTISVDTSKNQFSLKLSSVTAADTAVYYCARVAPSYPRVFDYWGQGTLVTVSS VL: QSVLTQPPSVSGAPGQRVTISCTGSSSNIGAGYDVHWYQQLPGTAPKLLIYGNRNRPSGVPDRFSGSKSGTSASLAITGLQAEDEADYYCQSYDYSLRVYVFGGGTKLTVL', 91);
